The reported numbers originate from paper PMC5430633.

- system under test: LC3B wild type (for ITC and NMR) (human, UniProt Q9GZQ8 1-120)
- assay explanation: ITC; rows marked WT*: previous set of conditions reported by Novak et al.: 50 mM NaPi, 150 mM NaCl, pH 7.5
- particulars: both partners purified
measure: Kd (nM)
Quick note: give the figure in nM, leave out the unit.

RPEEQMESDNCSGGDDDWTHLS [p62 LIR peptide] has a reported Kd of 1470
